Biological target: AXL (human catalytic domain) (Homo sapiens, UniProt P30530)
Construct: purchased Upstate Ltd. 14-512
Assay: AXL (human catalytic domain) Enzyme Activity Assay (IMAP fluorescence polarisation)
Assay type: biochemical
Conditions: further data set (WW-001 through WW-169, XX-001 through XX-469, YY-001 through YY-016, ZZ-001 through ZZ-003); 150 μM ATP
pIC50: −log10 of the molar value.
Examples of compounds with documented pIC50 follow.

- smiles.input: "Cc1ncc(CNc2cccc(-c3cccc4nc(Nc5ccc(OCCN6CCCC6)cc5)nn34)c2)n1C"
  assay.system: "AXL (human catalytic domain) (Homo sapiens, UniProt P30530)"
  pIC50: "6.00 to 7.00"
- smiles.input: "Cn1cncc1CNc1cccc(-c2cccc3nc(Nc4ccc(OCCN5CCCC5)cc4)nn23)c1"
  assay.system: "AXL (human catalytic domain) (Homo sapiens, UniProt P30530)"
  pIC50: "6.00 to 7.00"
- smiles.input: "c1cc(-c2ccc3c(c2)OCCO3)n2nc(Nc3ccc(N4CCNCC4)cc3)nc2c1"
  assay.system: "AXL (human catalytic domain) (Homo sapiens, UniProt P30530)"
  pIC50: "≥ 7.00"
- smiles.input: "Fc1cc(Nc2nc3cccc(-c4ccc5c(c4)OCCO5)n3n2)ccc1OCCN1CCCC1"
  assay.system: "AXL (human catalytic domain) (Homo sapiens, UniProt P30530)"
  pIC50: "≥ 7.00"
- smiles.input: "c1cc(NC2CCCC2)n2nc(Nc3ccc(OCCN4CCCC4)cc3)nc2c1"
  assay.system: "AXL (human catalytic domain) (Homo sapiens, UniProt P30530)"
  pIC50: "5.00 to 6.00"
- smiles.input: "CCOc1ccc(-c2nccc3nc(Nc4cccc(OCCN(CC)CC)c4)nn23)cc1"
  assay.system: "AXL (human catalytic domain) (Homo sapiens, UniProt P30530)"
  pIC50: "5.00 to 6.00"
- smiles.input: "COc1cc(-c2cccc3nc(NC(=O)C4CC4)nn23)ccc1F"
  assay.system: "AXL (human catalytic domain) (Homo sapiens, UniProt P30530)"
  pIC50: "5.00 to 6.00"
- smiles.input: "O=C(CCN1CCCC1)Nc1cccc(Nc2nc3cccc(-c4ccc5c(c4)OCCO5)n3n2)c1"
  assay.system: "AXL (human catalytic domain) (Homo sapiens, UniProt P30530)"
  pIC50: "6.00 to 7.00"
- smiles.input: "COC(=O)c1ccc(-c2cccc3nc(Nc4ccc(OCCN5CCCC5)cc4)nn23)cc1"
  assay.system: "AXL (human catalytic domain) (Homo sapiens, UniProt P30530)"
  pIC50: "6.00 to 7.00"
- smiles.input: "Nc1nnc(SCCn2cc(-c3cccc4nc(Nc5ccc(OCCN6CCCC6)cc5)nn34)cn2)[nH]1"
  assay.system: "AXL (human catalytic domain) (Homo sapiens, UniProt P30530)"
  pIC50: "5.00 to 6.00"
- smiles.input: "COc1ccc(-c2cccc3nc(NC(=O)CC4CC4)nn23)cc1"
  assay.system: "AXL (human catalytic domain) (Homo sapiens, UniProt P30530)"
  pIC50: "5.00 to 6.00"

###

Target: AXL (human catalytic domain) (Homo sapiens, UniProt P30530)
Construct: purchased Upstate Ltd. 14-512
Sequence (P30530 473-894): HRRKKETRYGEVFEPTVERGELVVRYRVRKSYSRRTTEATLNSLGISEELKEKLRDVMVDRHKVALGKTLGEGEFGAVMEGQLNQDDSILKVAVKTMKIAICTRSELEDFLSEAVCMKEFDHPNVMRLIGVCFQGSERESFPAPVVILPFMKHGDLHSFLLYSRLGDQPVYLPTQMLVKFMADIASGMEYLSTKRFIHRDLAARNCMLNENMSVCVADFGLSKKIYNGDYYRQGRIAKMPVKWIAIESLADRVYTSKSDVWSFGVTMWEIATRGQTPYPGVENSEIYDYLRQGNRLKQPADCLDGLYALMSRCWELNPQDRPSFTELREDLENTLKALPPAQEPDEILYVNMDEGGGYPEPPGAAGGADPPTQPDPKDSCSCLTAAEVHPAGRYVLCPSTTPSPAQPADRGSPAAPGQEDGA
Experiment: AXL (human catalytic domain) Enzyme Activity Assay (IMAP fluorescence polarisation)
Assay type: biochemical
Conditions: further data set (WW-001 through WW-169, XX-001 through XX-469, YY-001 through YY-016, ZZ-001 through ZZ-003); 150 μM ATP
Examples of compounds with documented IC50 follow.
observable: IC50

- smiles.input: "COc1cccc(NC(=O)Nc2cccc(-c3cccc4nc(Nc5ccc(OCCN6CCCC6)cc5)nn34)c2)c1"
  result: "1000 to 10000 nM"
- smiles.input: "O=C(Nc1cccc(-c2cccc3nc(Nc4ccc(OCCN5CCCC5)cc4)nn23)c1)c1ccc2nonc2c1"
  result: "100 to 1000 nM"
- smiles.input: "CCN(CC)CCNc1cc(Nc2nc3cccc(-c4ccc(OC)cc4)n3n2)ccn1"
  result: "100 to 1000 nM"
- smiles.input: "COc1cccc(COc2ccc(-c3cccc4nc(NC(=O)C5CC5)nn34)cc2)c1"
  result: "1000 to 10000 nM"
- smiles.input: "Cc1ccc(-c2cccc3nc(Nc4cccc(C(=O)NCCN5CCCC5)c4)nn23)cc1F"
  result: "100 to 1000 nM"
- smiles.input: "COc1ccc(-c2cccc3nc(NC(=O)C4CC4)nn23)cc1C"
  result: "100 to 1000 nM"
- smiles.input: "CC(C)Oc1ccc(-c2cccc3nc(Nc4ccc(OCCN5CCCC5)cc4)nn23)cc1"
  result: "100 to 1000 nM"
- smiles.input: "CN(C)C(=O)c1ccc(-c2cccc3nc(Nc4ccc(OCCN5CCCC5)cc4)nn23)cc1"
  result: "1000 to 10000 nM"
- smiles.input: "O=S(=O)(C1CCCCC1)n1cc(-c2cccc3nc(Nc4ccc(OCCN5CCCC5)cc4)nn23)cn1"
  result: "≤ 100 nM"
- smiles.input: "COc1ccc(-c2cccc3nc(Nc4cccc(OCCCN)c4)nn23)cc1"
  result: "100 to 1000 nM"
- smiles.input: "CN(C)CCNC(=O)c1cccc(Nc2nc3cccc(-c4ccc5occc5c4)n3n2)c1"
  result: "≤ 100 nM"
- smiles.input: "CC(=O)Nc1ccc(S(=O)(=O)n2cc(-c3cccc4nc(Nc5ccc(OCCN6CCCC6)cc5)nn34)cn2)cc1"
  result: "100 to 1000 nM"
- smiles.input: "COc1cc(Nc2nc3cccc(-c4ccc5c(c4)OCCO5)n3n2)ccc1OCCN(C)C"
  result: "100 to 1000 nM"
- smiles.input: "CN(C)CC(C)(C)Oc1ccc(Nc2nc3cccc(-c4ccc5c(c4)OCCO5)n3n2)cc1"
  result: "100 to 1000 nM"
